Assay: in vivo
Details: pig
measurementKind: concentration at 7 day

Query string: Supply measured concentration at 7 day of CO[C@H]1C[C@@H]2CC[C@@H](C)[C@@](O)(O2)C(=O)C(=O)N2CCCC[C@H]2C(=O)O[C@H]([C@H](C)C[C@@H]2CC[C@@H](O)[C@H](OC)C2)CC(=O)[C@H](C)/C=C(\C)[C@@H](O)[C@@H](OC)C(=O)[C@H](C)C[C@H](C)/C=C/C=C/C=C/1C in your reply.
Result string: 2900 ng/g

---

Assay: in vivo
Details: pig
measurementKind: concentration at 28 day

Query string: Supply measured concentration at 28 day of CO[C@H]1C[C@@H]2CC[C@@H](C)[C@@](O)(O2)C(=O)C(=O)N2CCCC[C@H]2C(=O)O[C@H]([C@H](C)C[C@@H]2CC[C@@H](O)[C@H](OC)C2)CC(=O)[C@H](C)/C=C(\C)[C@@H](O)[C@@H](OC)C(=O)[C@H](C)C[C@H](C)/C=C/C=C/C=C/1C in your reply.
Result string: 25 ng/g

Data credit: patent US8568763B2
